Entries and their pIC50
Assay System: Cytochrome P450 2C19 (Homo sapiens)
Sequence (P33261 whole entry): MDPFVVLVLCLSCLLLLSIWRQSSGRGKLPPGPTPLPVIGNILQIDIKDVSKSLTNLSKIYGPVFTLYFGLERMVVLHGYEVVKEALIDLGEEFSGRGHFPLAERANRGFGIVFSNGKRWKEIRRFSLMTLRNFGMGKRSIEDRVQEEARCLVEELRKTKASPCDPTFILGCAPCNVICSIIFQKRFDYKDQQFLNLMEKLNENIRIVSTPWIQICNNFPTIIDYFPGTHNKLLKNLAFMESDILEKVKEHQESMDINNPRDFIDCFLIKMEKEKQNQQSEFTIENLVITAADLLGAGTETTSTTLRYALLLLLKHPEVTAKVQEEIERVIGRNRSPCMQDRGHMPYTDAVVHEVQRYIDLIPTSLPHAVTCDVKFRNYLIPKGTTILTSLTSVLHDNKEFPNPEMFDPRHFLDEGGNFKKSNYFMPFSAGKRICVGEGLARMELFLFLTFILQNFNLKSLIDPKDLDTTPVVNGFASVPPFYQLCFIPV
pIC50: −log10 of the molar value.

Structure Smiles: CN(C)C(=O)N1CCC(Oc2nc(-c3cccc4[nH]ncc34)nc(N3CCOCC3)n2)CC1
pIC50: < 5.00
--
Structure Smiles: CN(C)C(=O)c1ccc(Oc2nc(-c3cccc4[nH]ncc34)nc(N3CCOCC3)n2)cc1
pIC50: < 5.00

----------
Measurement Notes: AUC in Swiss mouse plasma at 1 mg/kg, po after 0.16 to 8 hrs by LC-MS analysis
Assay type: ADME, organism-based
Set-up: dose 1 mg/kg, time 0.16-8 hr, route oral

Structure Smiles: CN(C)C(=O)c1ccc(Oc2nc(-c3cccc4[nH]ncc34)nc(N3CCOCC3)n2)cc1
Output Unit: µM·h
AUC: 2.12

----------
Measurement Notes: Metabolic stability in dog liver microsomes assessed as parent compound remaining at 10 uM after 2 hrs by HPLC analysis in presence of NADPH
Assay type: ADME, Canis lupus familiaris
Measurement Conditions: read-out: Stability
Test Readout: remaining at 2 h, 10 µM

Structure Smiles: CN(C)C(=O)c1ccc(Oc2nc(-c3cccc4[nH]ncc34)nc(N3CCOCC3)n2)cc1
Test Readout: remaining at 2 h, 10 µM
Value Measured: 83.8%

----------
Measurement Notes: Cmax in Swiss mouse plasma at 3 mg/kg, po after 0.16 to 8 hrs by LC-MS analysis
Type: ADME, organism-based
Parameters: dose 3 mg/kg, route oral

Structure Smiles: CN(C)C(=O)c1ccc(Oc2nc(-c3cccc4[nH]ncc34)nc(N3CCOCC3)n2)cc1
Output Unit: nM
Cmax: 1240

----------
Measurement Notes: Tmax in Swiss mouse plasma at 3 mg/kg, po after 0.16 to 8 hrs by LC-MS analysis
Assay type: ADME, organism-based

Structure Smiles: CN(C)C(=O)c1ccc(Oc2nc(-c3cccc4[nH]ncc34)nc(N3CCOCC3)n2)cc1
Tmax (h): 1

----------
Measurement Notes: Tmax in Swiss mouse plasma at 1 mg/kg, po after 0.16 to 8 hrs by LC-MS analysis
Type: ADME, organism-based
Test Readout: Tmax (h)

Structure Smiles: CN(C)C(=O)c1ccc(Oc2nc(-c3cccc4[nH]ncc34)nc(N3CCOCC3)n2)cc1
Test Readout: Tmax
Output Unit: h
Value Measured: 1

----------
Measurement Notes: AUC in Swiss mouse plasma at 3 mg/kg, po after 0.16 to 8 hrs by LC-MS analysis
Format: ADME, organism-based
Set-up: time lower 0.16 hr, dose 3 mg/kg, time upper 8 hr, route oral

Structure Smiles: CN(C)C(=O)c1ccc(Oc2nc(-c3cccc4[nH]ncc34)nc(N3CCOCC3)n2)cc1
Output Unit: µM·h
AUC: 5.25

----------
Measurement Notes: Elimination half life in Swiss mouse plasma at 1 mg/kg, po after 0.16 to 8 hrs by LC-MS analysis
Format: ADME, organism-based
Measurement Conditions: read-out: beta t1/2 (converted)

Structure Smiles: CN(C)C(=O)c1ccc(Oc2nc(-c3cccc4[nH]ncc34)nc(N3CCOCC3)n2)cc1
half-life / min: 416

----------
Documented IC50 across a set of molecules
Assay System: Cytochrome P450 2D6 (Homo sapiens, UniProt P10635)
Sequence (P10635 whole entry): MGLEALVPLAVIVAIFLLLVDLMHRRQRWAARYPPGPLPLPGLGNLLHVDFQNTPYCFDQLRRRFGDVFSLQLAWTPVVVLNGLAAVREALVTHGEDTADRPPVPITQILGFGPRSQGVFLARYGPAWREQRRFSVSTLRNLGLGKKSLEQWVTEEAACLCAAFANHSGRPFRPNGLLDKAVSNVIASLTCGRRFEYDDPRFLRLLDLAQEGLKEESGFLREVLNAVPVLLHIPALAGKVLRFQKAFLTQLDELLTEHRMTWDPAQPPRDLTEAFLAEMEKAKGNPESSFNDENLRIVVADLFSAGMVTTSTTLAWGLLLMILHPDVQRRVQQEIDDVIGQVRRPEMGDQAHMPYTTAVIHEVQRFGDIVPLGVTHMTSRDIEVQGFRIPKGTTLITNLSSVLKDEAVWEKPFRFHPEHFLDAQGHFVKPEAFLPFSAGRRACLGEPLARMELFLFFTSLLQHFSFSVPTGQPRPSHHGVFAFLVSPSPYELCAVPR

Structure Smiles: CN(C)C(=O)c1ccc(Oc2nc(-c3cccc4[nH]ncc34)nc(N3CCOCC3)n2)cc1
Assay System: Cytochrome P450 2D6 (Homo sapiens, UniProt P10635)
IC50: > 10 µM
--
Structure Smiles: CN(C)C(=O)[C@H]1CC[C@H](Oc2nc(-c3cccc4[nH]ncc34)nc(N3CCOCC3)n2)CC1
Assay System: Cytochrome P450 2D6 (Homo sapiens, UniProt P10635)
IC50: > 10 µM
--
Structure Smiles: CN(C)C(=O)N1CCC(Oc2nc(-c3cccc4[nH]ncc34)nc(N3CCOCC3)n2)CC1
Assay System: Cytochrome P450 2D6 (Homo sapiens, UniProt P10635)
IC50: > 10 µM

----------
Assay System: Phosphatidylinositol 4,5-bisphosphate 3-kinase catalytic subunit alpha isoform (Homo sapiens)
Measurement Notes: Inhibition of human recombinant PI3K-alpha using phosphatidylinositol biphosphate as substrate preincubated for 15 mins followed by substrate addition measured after 60 mins by HTRF assay
Listed here: items and their measured log10 IC50.
Test Readout: log10 IC50 (log10 of the value in nM)

Structure Smiles: CN(C)C(=O)CNc1nc(-c2cncc(O)c2)nc(N2CCOCC2)n1
Test Readout: log10 IC50
Value Measured: 3.20
//
Structure Smiles: CN(C)C(=O)c1ccc(Oc2nc(-c3cccc4[nH]ncc34)nc(N3CCOCC3)n2)cc1
Test Readout: log10 IC50
Value Measured: 1.78
//
Structure Smiles: CNC(=O)CNc1nc(-c2cccc(O)c2)nc(N2CCOCC2)n1
Test Readout: log10 IC50
Value Measured: 2.86
//
Structure Smiles: c1ccc(Nc2nc(-c3cccc4[nH]ncc34)nc(N3CCOCC3)n2)cc1
Test Readout: log10 IC50
Value Measured: 2.90
//
Structure Smiles: O=C1CCN(c2nc(-c3cccc4[nH]ncc34)nc(N3CCOCC3)n2)CCN1
Test Readout: log10 IC50
Value Measured: 2.30
//
Structure Smiles: NC(=O)c1cccc(Nc2nc(-c3cccc4[nH]ncc34)nc(N3CCOCC3)n2)c1
Test Readout: log10 IC50
Value Measured: 1.90
//
Structure Smiles: CN(C)C(=O)CCNc1nc(-c2cccc3[nH]ncc23)nc(N2CCOCC2)n1
Test Readout: log10 IC50
Value Measured: 2.78
//
Structure Smiles: CN(C)C(=O)c1sccc1Nc1nc(-c2cccc3[nH]ncc23)nc(N2CCOCC2)n1
Test Readout: log10 IC50
Value Measured: 2.30
//
Structure Smiles: CN(C)C(=O)CNc1nc(-c2cccc(O)c2)nc(N2CCOCC2)n1
Test Readout: log10 IC50
Value Measured: 2.73
//
Structure Smiles: CN(C)C(=O)CNc1nc(-c2cccc3[nH]ncc23)nc(N2CCOCC2)n1
Test Readout: log10 IC50
Value Measured: 3.04
//
Structure Smiles: CN(CC(=O)O)c1nc(-c2cccc(O)c2)nc(N2CCOCC2)n1
Test Readout: log10 IC50
Value Measured: 4.00
//
Structure Smiles: O=C1CN(c2nc(-c3cccc4[nH]ncc34)nc(N3CCOCC3)n2)CCN1
Test Readout: log10 IC50
Value Measured: 2.60
//
Structure Smiles: NC(=O)CNc1nc(-c2cccc(O)c2)nc(N2CCOCC2)n1
Test Readout: log10 IC50
Value Measured: 2.87

----------
Items are presented alongside their recorded remaining at 2 h, 10 µM.
Measurement Notes: Metabolic stability in human liver microsomes assessed as parent compound remaining at 10 uM after 2 hrs by HPLC analysis in presence of NADPH
Assay type: ADME
Measurement Conditions: read-out: Stability
Test Readout: remaining at 2 h, 10 µM

Structure Smiles: CN(C)C(=O)N1CCC(Oc2nc(-c3cccc4[nH]ncc34)nc(N3CCOCC3)n2)CC1
Value Measured: 80.7%

Structure Smiles: CN(C)C(=O)c1ccc(Oc2nc(-c3cccc4[nH]ncc34)nc(N3CCOCC3)n2)cc1
Value Measured: 101%

Structure Smiles: CN(C)C(=O)[C@H]1CC[C@H](Oc2nc(-c3cccc4[nH]ncc34)nc(N3CCOCC3)n2)CC1
Value Measured: 99%

----------
Assay System: Phosphatidylinositol 4,5-bisphosphate 3-kinase catalytic subunit alpha isoform (Homo sapiens, UniProt P42336)
Sequence (P42336 whole entry, canonical isoform): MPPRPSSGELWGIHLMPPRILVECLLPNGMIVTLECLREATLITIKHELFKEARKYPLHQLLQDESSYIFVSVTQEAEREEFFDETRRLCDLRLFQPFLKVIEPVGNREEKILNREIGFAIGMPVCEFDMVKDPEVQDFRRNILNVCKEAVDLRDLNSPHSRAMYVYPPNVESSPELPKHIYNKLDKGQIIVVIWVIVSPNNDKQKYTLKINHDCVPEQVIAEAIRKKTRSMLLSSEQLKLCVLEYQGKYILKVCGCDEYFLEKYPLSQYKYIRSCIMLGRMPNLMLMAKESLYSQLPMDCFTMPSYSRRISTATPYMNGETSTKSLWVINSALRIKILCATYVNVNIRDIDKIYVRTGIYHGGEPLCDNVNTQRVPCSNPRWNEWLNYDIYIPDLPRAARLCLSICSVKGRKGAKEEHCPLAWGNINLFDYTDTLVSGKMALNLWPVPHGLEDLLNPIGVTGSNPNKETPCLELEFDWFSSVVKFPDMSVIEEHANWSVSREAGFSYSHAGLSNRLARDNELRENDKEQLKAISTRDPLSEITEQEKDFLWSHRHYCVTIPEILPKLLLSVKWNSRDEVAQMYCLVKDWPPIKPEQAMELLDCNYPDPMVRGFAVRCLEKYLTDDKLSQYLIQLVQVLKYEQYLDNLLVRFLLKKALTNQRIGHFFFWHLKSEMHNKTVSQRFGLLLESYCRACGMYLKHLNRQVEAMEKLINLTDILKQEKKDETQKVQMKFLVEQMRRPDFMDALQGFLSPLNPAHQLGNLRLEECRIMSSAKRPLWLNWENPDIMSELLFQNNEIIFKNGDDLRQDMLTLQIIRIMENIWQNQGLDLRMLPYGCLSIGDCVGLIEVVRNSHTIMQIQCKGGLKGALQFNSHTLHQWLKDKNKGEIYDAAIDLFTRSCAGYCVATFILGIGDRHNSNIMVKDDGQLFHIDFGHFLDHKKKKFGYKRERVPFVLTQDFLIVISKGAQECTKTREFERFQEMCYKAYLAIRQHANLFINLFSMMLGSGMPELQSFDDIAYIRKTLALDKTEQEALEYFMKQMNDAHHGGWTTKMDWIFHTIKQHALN
Measurement Notes: Inhibition of human recombinant PI3K-alpha using phosphatidylinositol biphosphate as substrate preincubated for 15 mins followed by substrate addition measured after 60 mins by HTRF assay
pIC50: −log10 of the molar value.
# pIC50 annotations
Test Readout: pIC50

Compound: Nc1cccc(-c2nc(NCC(=O)O)nc(N3CCOCC3)n2)c1
Value Measured: < 5.00
--
Compound: CN(C)C(=O)CNc1nc(-c2cccc3c2CCC3O)nc(N2CCOCC2)n1 (centres undefined)
Value Measured: < 4.70
--
Compound: COc1cccc(-c2nc(NCC(=O)O)nc(N3CCOCC3)n2)c1
Value Measured: < 4.70
--
Compound: O=C(O)CNc1nc(-c2ccccc2)nc(N2CCOCC2)n1
Value Measured: < 4.70
